System: Sporothrix schenckii ATCC 32286
experimental.protocol: growth inhibition relative to untreated control; higher = more growth inhibition (more antifungal activity), active = 80 or more; extreme values may be limits of the assay
condition.label: 1 µM; 48 h
measurement.name: growth inhibition (%)
Answers are plain numbers, in %.

Solved cases (8 shown):
compound	value.units	growth inhibition
Cc1cc(NC(=O)c2ccc(Oc3ccc(Cl)cc3O)o2)no1	%	2.75
Cc1cc(O)nc(-n2nc(C)cc2C)n1	%	11.8
COc1ccc(-c2cnc3ccc(N4CCCC4)nn23)cc1OC	%	0
CCC(NC(=O)c1ccccc1NC(=O)c1ccc(C)cc1)C(=O)OC (stereo not given)	%	5.75
COc1ccc(OC(C)C(=O)Nc2ccc(Cl)cc2C)cc1 (stereo not given)	%	11.2
NC(CC(=O)c1ccc(Cl)cc1Cl)C(Cl)(Cl)Cl (stereo not given)	%	14
Cc1cc(C(=O)Nc2ccc(-c3ccccc3)cc2)no1	%	17
Nc1ncnc2c1c(Cc1cccc3ccccc13)nn2CC1CCNCC1	%	0

Would you mind listing growth inhibition for each of the following compounds?
1. CCc1nc2ccc(Cl)cn2c1C(=O)NCc1ccc(N2CCC(c3ccc(OC(F)(F)F)cc3)CC2)cc1
2. Cc1nc2ccccn2c1C(=O)NCc1ccc(Cl)cc1
3. CCN(CC)C(=O)N1CCN(C)CC1
4. O=C(Nc1nnc(-c2ccc(Cl)cc2)o1)c1cccc(C(F)(F)F)c1
5. CCCc1ccc(S(=O)(=O)Nc2ccc(CN3CCN(CC4CC4)CC3)cc2)cc1
6. Cc1nn2c(=O)c3c([nH]c2c1-c1ccc(Cl)cc1)CCCC3
7. CC(=O)NC[C@H]1CN(c2ccc(N3CCSCC3)c(F)c2)C(=O)O1

1: 2.25; 2: 16; 3: 1; 4: 85.5; 5: 2.25; 6: 15.8; 7: 0
